Assay: Percent of zwitter ion formed, was determined at pH 7.4
Type: ADME
quantity-name: Z (%)

Examples with their reported Z follow.
>>> number("CCN1CCC[C@H]1CNC(=O)c1c(O)c(Br)cc(Br)c1OC")
95
>>> number("CCc1cc(CC)c(OC)c(C(=O)NC[C@@H]2CCCN2CC)c1O")
56
>>> number("CCN1CCC[C@H]1CNC(=O)c1c(OC)ccc([N+](=O)[O-])c1O")
96

[I] CCN1CCC[C@H]1CNC(=O)c1c(O)c(Cl)cc(Cl)c1OC [RACLOPRIDE]
[II] CCc1ccc(OC)c(C(=O)NC[C@@H]2CCCN2CC)c1O
Query: // task: argmin of Z over [ I , II ] Write down the label attached to your selection.
Result: II
(II: 5%, I: 96%)

---

Experiment: Dissociation constants determined by potentiometry at 25 degree celsius (Amino group)
Type: physicochemical
quantity-name: PKa2

>>> number("CCc1cc(CC)c(OC)c(C(=O)NC[C@@H]2CCCN2CC)c1O")
9.55
>>> number("CCN1CCC[C@H]1CNC(=O)c1c(O)cccc1OC")
9.56
>>> number("COc1c(Cl)cc(Cl)c(O)c1C(=O)NC1CCN(C)CC1")
9.12
>>> number("CCc1cc(Cl)c(O)c(C(=O)NC[C@@H]2CCCN2CC)c1OC")
9.6
>>> number("CCN1CCC[C@H]1CNC(=O)c1c(OC)ccc([N+](=O)[O-])c1O")
9.16
>>> number("CCN1CCC[C@H]1CNC(=O)c1c(OC)ccc(Cl)c1O")
9.66
>>> number("CCN1CCC[C@H]1CNC(=O)c1c(O)c(Br)cc(Br)c1OC")
9.18
>>> number("CCc1cc(Cl)c(OC)c(C(=O)NC[C@@H]2CCCN2CC)c1O [ETICLOPRIDE]")
9.67
>>> number("CCN1CCC[C@H]1CNC(=O)c1c(O)c(Cl)cc(Cl)c1OC [RACLOPRIDE]")
9.21
>>> number("CCc1ccc(OC)c(C(=O)NC[C@@H]2CCCN2CC)c1O")
9.57

---

Experiment: The isoelectric point (pI) as the arithmetic mean of pKa1 and pKa2
Type: physicochemical
quantity-name: pI

>>> number("CCN1CCC[C@H]1CNC(=O)c1c(O)cccc1OC")
9.13
>>> number("CCc1cc(Cl)c(O)c(C(=O)NC[C@@H]2CCCN2CC)c1OC")
8.24
>>> number("CCN1CCC[C@H]1CNC(=O)c1c(OC)ccc([N+](=O)[O-])c1O")
7.49
>>> number("CCN1CCC[C@H]1CNC(=O)c1c(OC)ccc(Cl)c1O")
8.4
>>> number("CCc1cc(Cl)c(OC)c(C(=O)NC[C@@H]2CCCN2CC)c1O [ETICLOPRIDE]")
8.3
>>> number("COc1c(Cl)cc(Cl)c(O)c1C(=O)NC1CCN(C)CC1")
7.54
>>> number("CCc1ccc(OC)c(C(=O)NC[C@@H]2CCCN2CC)c1O")
9.14
>>> number("CCN1CCC[C@H]1CNC(=O)c1c(O)c(Br)cc(Br)c1OC")
7.56
>>> number("CCN1CCC[C@H]1CNC(=O)c1c(O)c(Cl)cc(Cl)c1OC [RACLOPRIDE]")
7.51
>>> number("CCc1cc(CC)c(OC)c(C(=O)NC[C@@H]2CCCN2CC)c1O")
8.42
